Test system: chloroquine-sensitive P. falciparum (3D7 strain)
Assay type: cell-based
Experimental setup: Plasmodium falciparum, 3D7, 48 h, read-out: MEAN IC50 ± SE
Experimental readout: IC50 (nM)
Numbers only; they are read as nM.

Recorded IC50, per entry:
# Smiles code, Unit name, IC50
rows = [
    ("CC1(C)OOC2(CCN(C(=O)c3ccccc3)CC2)OO1", "nM", 29.9),
    ("O=C(c1ccccc1)N1CCC2(CC1)OOC1(CCCCC1)OO2", "nM", 17.9),
]

Look up and report measured IC50 for this entry: CC1(c2ccccc2)OOC2(CCN(C(=O)c3ccccc3)CC2)OO1 16.3

Look up and report measured IC50 for this entry: CC1(c2ccc(Cl)cc2)OOC2(CCN(C(=O)c3ccccc3)CC2)OO1 11.8

Look up and report measured IC50 for this entry: O=C(c1ccccc1)N1CCC2(CC1)OOC1(OO2)C2CC3CC(C2)CC1C3 7.28
